Hello, the source for this data is patent US5723484A, in case you need it.

Entries and their Ki values follow.
target: 5-HT2C receptors (Sus scrofa, UniProt K7GSR7); construct: pig cerebral plexus; from tissue; host or cells: pig cerebral plexus (own knowledge: choroid plexus); assay: biochemical; assay type: binding, pig; details: 5-HT2C Ki (nM), pig cerebral plexus, [3H]-mesulergine 1.0 nM; average of two to four determinations
Sequence (K7GSR7 1-457): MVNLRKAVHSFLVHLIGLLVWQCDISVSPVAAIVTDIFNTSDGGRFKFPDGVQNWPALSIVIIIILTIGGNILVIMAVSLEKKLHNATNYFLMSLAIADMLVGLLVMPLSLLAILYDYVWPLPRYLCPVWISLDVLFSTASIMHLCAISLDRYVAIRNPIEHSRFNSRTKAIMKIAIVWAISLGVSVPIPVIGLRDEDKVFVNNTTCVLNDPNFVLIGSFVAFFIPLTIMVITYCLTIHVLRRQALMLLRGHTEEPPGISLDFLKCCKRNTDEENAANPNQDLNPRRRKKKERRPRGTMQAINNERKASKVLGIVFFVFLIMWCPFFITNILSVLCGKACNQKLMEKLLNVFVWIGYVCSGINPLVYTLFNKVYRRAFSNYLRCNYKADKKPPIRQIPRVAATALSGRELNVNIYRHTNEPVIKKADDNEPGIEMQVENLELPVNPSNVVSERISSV
Structures can show the parent of a compound that is named as a salt.

| compound | measureUnit | Ki |
| --- | --- | --- |
| COc1ccc2c(c1)[C@H]1CNC[C@@H]1CO2.Cl (relative stereo) [Example 10, hydrochloride] | nM | 2190 |
| COc1ccc2c(c1)OC[C@@H]1CN(Cc3ccccc3)C[C@H]21 (relative stereo) | nM | 871 |
| Cl.c1ccc2c3c(ccc2c1)OC[C@@H]1CNC[C@@H]31 (relative stereo) [Example 33, hydrochloride] | nM | 51 |
| COc1cccc2c1[C@H]1CN(Cc3ccccc3)C[C@@H]1CO2.Cl (relative stereo) [Example 3, hydrochloride] | nM | 48 |
| CCCN1C[C@@H]2COc3ccc(OC)cc3[C@H]2C1.Cl (relative stereo) [Example 11, hydrochloride] | nM | 4070 |
| Oc1cccc2c1[C@H]1CN(Cc3ccccc3)C[C@H]1CO2 (relative stereo) | nM | 219 |
| c1ccc(CN2C[C@H]3COc4ccc5ccccc5c4[C@H]3C2)cc1 (relative stereo) | nM | 155 |
| C=CCN1C[C@@H]2COc3cccc(OC)c3[C@H]2C1 (relative stereo) | nM | 120 |
| CCCN1C[C@@H]2COc3cccc(OC)c3[C@H]2C1 (relative stereo) | nM | 104 |
| Cl.c1ccc2c3c(ccc2c1)[C@@H]1CNC[C@@H]1CO3 (relative stereo) [Example 36, hydrochloride] | nM | 25.7 |
| COc1cccc2c1[C@@H]1CNC[C@@H]1CO2.Cl (relative stereo) [Example 16, hydrochloride] | nM | 263 |
| Cl.c1ccc(CN2C[C@@H]3COc4c(ccc5ccccc45)[C@@H]3C2)cc1 (relative stereo) [Example 35, hydrochloride] | nM | 331 |
| Cl.Oc1cccc2c1[C@H]1CN(Cc3ccccc3)C[C@@H]1CO2 (relative stereo) [Example 2, hydrochloride] | nM | 195 |
| Cl.Clc1ccc2c(c1)OC[C@H]1CN(Cc3ccccc3)C[C@H]21 (relative stereo) [Example 18, hydrochloride] | nM | 871 |
| c1ccc2c(c1)OC[C@@H]1CN(CCOc3cccc4c3SCCC4)C[C@H]21 (relative stereo) [Example 19, hydrochloride] | nM | 22 |

###

Where a name gives a salt, the structure may show the parent alone.
Let's go through some Ki measurements on 5-HT2A receptors (Rattus norvegicus) together.
readoutLabel: Ki (nM)

| compound | measureUnit | readoutRelation | val |
| --- | --- | --- | --- |
| Cl.c1ccc2c3c(ccc2c1)[C@@H]1CNC[C@@H]1CO3 (relative stereo) [Example 36, hydrochloride] | nM | = | 257 |
| CCCN1C[C@@H]2COc3ccc(OC)cc3[C@H]2C1.Cl (relative stereo) [Example 11, hydrochloride] | nM | > | 10000 |
| Cl.c1ccc(CN2C[C@H]3COc4c(ccc5ccccc45)[C@@H]3C2)cc1 (relative stereo) [Example 34, hydrochloride] | nM | = | 1480 |
| c1ccc2c(c1)OC[C@@H]1CN(CCOc3cccc4c3SCCC4)C[C@H]21 (relative stereo) [Example 19, hydrochloride] | nM | = | 155 |
| Oc1cccc2c1[C@H]1CN(Cc3ccccc3)C[C@H]1CO2 (relative stereo) [Example 14] | nM | = | 1100 |
| c1ccc(CN2C[C@H]3COc4ccc5ccccc5c4[C@H]3C2)cc1 (relative stereo) [Example 37] | nM | = | 1350 |
| Cl.Clc1ccc2c(c1)OC[C@H]1CN(Cc3ccccc3)C[C@H]21 (relative stereo) [Example 18, hydrochloride] | nM | = | 1870 |
| COc1ccc2c(c1)[C@H]1CN(Cc3ccccc3)C[C@@H]1CO2.Cl (relative stereo) [Example 9, hydrochloride] | nM | = | 1100 |
| COc1cccc2c1[C@@H]1CNC[C@@H]1CO2.Cl (relative stereo) [Example 16, hydrochloride] | nM | = | 3310 |
| COc1ccc2c(c1)OC[C@H]1CN(Cc3ccccc3)C[C@H]21.Cl (relative stereo) [Example 22, hydrochloride] | nM | = | 170 |
| COc1cccc2c1[C@H]1CNC[C@@H]1CO2.Cl (relative stereo) [Example 4, hydrochloride] | nM | = | 3470 |
| C=CCN1C[C@@H]2COc3cccc(OC)c3[C@H]2C1 (relative stereo) [Example 7] | nM | = | 1820 |
| COc1cccc2c1[C@H]1CN(Cc3ccccc3)C[C@@H]1CO2.Cl (relative stereo) [Example 3, hydrochloride] | nM | = | 269 |
| Cl.c1ccc2c(c1)OC[C@H]1CNC[C@@H]21 (relative stereo) [Example 13, hydrochloride] | nM | > | 10000 |

###

The entries below come with measured 5-HT2A /5-HT2C affinity ratio values attached.
tested on: 5-HT2C receptors; assay: biochemical; type: binding, pig; conditions: 5-HT2A Ki (rat frontal cortex) over 5-HT2C Ki (pig cerebral plexus)
Counter-ions that a name gives are not always drawn.

| compound | readoutRelation | 5-HT2A /5-HT2C affinity ratio |
| --- | --- | --- |
| Cl.c1ccc(CN2C[C@H]3COc4c(ccc5ccccc45)[C@@H]3C2)cc1 (relative stereo) | = | 1.9 |
| Cl.c1ccc(CN2C[C@@H]3COc4ccccc4[C@@H]3C2)cc1 (relative stereo) | = | 4.3 |
| Clc1ccc2c(c1)[C@H]1CN(Cc3ccccc3)C[C@H]1CO2 (relative stereo) | = | 2.8 |
| COc1ccc2c(c1)[C@H]1CN(Cc3ccccc3)C[C@@H]1CO2.Cl (relative stereo) | = | 2.3 |
| Oc1cccc2c1[C@H]1CN(Cc3ccccc3)C[C@H]1CO2 (relative stereo) | = | 5.00 |
| C=CCN1C[C@@H]2COc3cccc(OC)c3[C@H]2C1 (relative stereo) | = | 15.2 |
| COc1cccc2c1[C@@H]1CN(CCNC(=O)c3ccc(F)cc3)C[C@H]1CO2 (relative stereo) | = | 0.9 |
| CCCN1C[C@@H]2COc3ccc(OC)cc3[C@H]2C1.Cl (relative stereo) | > | 2.3 |
| COc1cccc2c1[C@H]1CN(Cc3ccccc3)C[C@@H]1CO2.Cl (relative stereo) | = | 5.6 |
| Cl.c1ccc2c(c1)OC[C@H]1CNC[C@@H]21 (relative stereo) | > | 3.33 |
| c1ccc(CN2C[C@H]3COc4ccc5ccccc5c4[C@H]3C2)cc1 (relative stereo) | = | 8.7 |
| COc1ccc2c(c1)[C@H]1CNC[C@@H]1CO2.Cl (relative stereo) | > | 4.8 |
| COc1ccc2c(c1)OC[C@@H]1CN(Cc3ccccc3)C[C@H]21 (relative stereo) | = | 0.7 |
| CCCN1C[C@@H]2COc3cccc(OC)c3[C@H]2C1 (relative stereo) | = | 16.7 |
| COc1cccc2c1[C@H]1CN(Cc3ccccc3)C[C@H]1CO2 (relative stereo) | = | 10.7 |
| Cl.c1ccc2c3c(ccc2c1)[C@@H]1CNC[C@@H]1CO3 (relative stereo) | = | 10 |
| COc1ccc2c(c1)OC[C@H]1CN(Cc3ccccc3)C[C@H]21.Cl (relative stereo) | = | 3.6 |
| Cl.Clc1ccc2c(c1)OC[C@H]1CN(Cc3ccccc3)C[C@H]21 (relative stereo) | = | 2.1 |
| COc1cccc2c1[C@H]1CNC[C@@H]1CO2.Cl (relative stereo) | = | 8.0 |
| Cl.Oc1cccc2c1[C@H]1CN(Cc3ccccc3)C[C@@H]1CO2 (relative stereo) | = | 2.5 |
| Cl.c1ccc2c3c(ccc2c1)OC[C@@H]1CNC[C@@H]31 (relative stereo) | = | 2.1 |
| Cl.c1ccc2c3c(ccc2c1)OC[C@@H]1CNC[C@H]31 (relative stereo) | = | 4.3 |
| COc1cccc2c1[C@@H]1CNC[C@@H]1CO2.Cl (relative stereo) | = | 12.6 |
| Cl.c1ccc(CN2C[C@@H]3COc4c(ccc5ccccc45)[C@@H]3C2)cc1 (relative stereo) | = | 2.9 |
| c1ccc2c(c1)OC[C@@H]1CN(CCOc3cccc4c3SCCC4)C[C@H]21 (relative stereo) [Example 19, hydrochloride] | = | 7.0 |

###

5-HT2A receptors (Rattus norvegicus, UniProt P14842) data, read-out Ki
Sequence (P14842 whole entry): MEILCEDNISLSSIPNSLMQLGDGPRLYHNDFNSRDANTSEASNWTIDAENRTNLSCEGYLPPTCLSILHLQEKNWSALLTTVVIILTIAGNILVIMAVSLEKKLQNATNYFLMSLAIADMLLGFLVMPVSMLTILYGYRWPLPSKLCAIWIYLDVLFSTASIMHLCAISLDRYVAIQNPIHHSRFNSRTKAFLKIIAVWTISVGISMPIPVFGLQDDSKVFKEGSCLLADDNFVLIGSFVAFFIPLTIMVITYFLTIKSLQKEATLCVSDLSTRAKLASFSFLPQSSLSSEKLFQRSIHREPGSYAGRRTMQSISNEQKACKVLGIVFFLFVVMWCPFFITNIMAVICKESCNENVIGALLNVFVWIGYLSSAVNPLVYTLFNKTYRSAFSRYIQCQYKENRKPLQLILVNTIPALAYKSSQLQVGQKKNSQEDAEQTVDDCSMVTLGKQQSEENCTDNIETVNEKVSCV

| compound | Ki, nM |
| --- | --- |
| Cl.c1ccc2c3c(ccc2c1)OC[C@@H]1CNC[C@@H]31 (relative stereo) [Example 33, hydrochloride] | 107 |
| Cl.c1ccc(CN2C[C@@H]3COc4c(ccc5ccccc45)[C@@H]3C2)cc1 (relative stereo) [Example 35, hydrochloride] | 955 |
| COc1ccc2c(c1)OC[C@@H]1CN(Cc3ccccc3)C[C@H]21 (relative stereo) [Example 21] | 617 |
| Cl.Oc1cccc2c1[C@H]1CN(Cc3ccccc3)C[C@@H]1CO2 (relative stereo) [Example 2, hydrochloride] | 490 |
